Experiment: Binding affinity to Escherichia coli DegP using SPMFKGV-pNA as substrate at resting state by isothermal titration calorimetry
Peptide text beside a SMILES is read from it. * marks the point of attachment. X1 = CC(C)[C@H](N*)B(O)O
measurement_kind: Kd (µM)
Unit µM implied. Number only.

Supply reported Kd belonging to this molecule: CSCC[C@H](NC(=O)[C@@H]1CCCN1C(=O)[C@@H](N)CC(=O)O)C(=O)N[C@@H](Cc1ccccc1)C(=O)N[C@@H](CCCCN)C(=O)N[C@@H](CC(C)C)C(=O)N[C@H](B(O)O)C(C)C (H-DPMFKL-X1)
6
